Every entry's value here was drawn from PubChem BioAssay (NCI).

System: BT-549 breast
Experiment: NCI-60 one-dose screen, 48 h
Details: 10 µM unless noted
About 83,000 compounds went through this panel and 20% of them were active in at least one assay; those are over-represented in the sample as a whole. Active and inactive are the calls of the source. The calls were made as follows: active = growth percent below 10; inactive = the rest.
Select the matching outcome among active, inactive

CCCCCc1ccnc(CC(=O)c2ccc(OC)cc2)c1: inactive

Request: # fetch the recorded call for COC(=O)[C@H](Cc1cn(C)cn1)NC(=O)[C@H](CC(=O)OCc1ccccc1)NC(=O)Nc1cc(C(F)(F)F)cc(C(F)(F)F)c1 here
Result: active

Request: Any idea what this test logged for CCCNC(=O)Oc1ccc(/C(=C(/C)Cc2ccc(OC)cc2)c2ccc(OCCN3CCCC3)cc2)cc1 ?
Result: inactive

Request: What classification did O=S(=O)(O)c1ccc2c(c1)Sc1cc(S(=O)(=O)O)ccc1O2 end up with in this test?
Result: inactive

Request: Recorded test outcome, item c1ccc(C(=NNc2nc3ccccc3o2)c2ccccn2)nc1
Result: inactive

Request: Short answer needed: outcome of this test for CCCCCCCCCC(C)NC(=O)CCl (stereo not drawn) ?
Result: inactive

Request: Each molecule tested received a call. Report the one for CCOC(=O)C1CCCN1C(=O)C1(NC(C)=O)CCCC1 (stereo not drawn) .
Result: inactive

Request: Hi, sorry to bother you, what did the test record for COc1cc(OC)c2c(=O)cc(-c3ccccc3)oc2c1 ?
Result: inactive

Request: Fill in: this test's call for O=C(N/N=C/c1coc2ccccc2c1=O)c1cc2oc(-c3ccccc3)cc2[nH]1 is ___
Result: inactive

Request: Lab log entry: O=C1C(=O)c2ccccc2C(O)=C1CCCc1ccc(C2CCCC2)cc1 — outcome as called in the assay?
Result: inactive

Request: So what was the verdict on Cc1cc2c(-c3nc4ccccc4[nH]3)c(O)c(O)cc2c(O)c1-c1c(C)cc2c(-c3nc4ccccc4[nH]3)c(O)c(O)cc2c1O in this test?
Result: active

Request: Field: outcome | Entry: COc1cc(NC(C)CCCN)c2nccc(C)c2c1OC (stereo not drawn)
Result: inactive

Request: Can you look up the reported call for CCCCN(CCC)CCCCCCCCCCN1CCCc2ccccc21 for me?
Result: inactive

Request: Assay outcome for O=S(=O)(Cc1cccc2c(CS(=O)(=O)c3ccc(Cl)cc3)cccc12)c1ccc(Cl)cc1 : what was it?
Result: inactive

Request: Tell me the recorded outcome of this test for Clc1ccc(N/N=C/c2ccccn2)nc1 .
Result: inactive

Request: In this assay, the call recorded for CC(=O)/C(=C\c1c(-c2ccccc2)[nH]c2ccccc12)S(=O)(=O)c1ccccc1 was what?
Result: inactive

Request: // return assay outcome for N=C(N)N=Nc1ccc(NN=C(N)N)c2ccccc12
Result: inactive

Request: Look up the recorded call for Cc1ccc([C@@H]2C[C@H](O)Cc3ccccc3N2)s1 in this test.
Result: inactive

Request: Query: recorded result category for O=C1/C(=C\c2cn(-c3nc(N4CCOCC4)nc(N4CCOCC4)n3)c3ccccc23)c2ccccc2N1c1c(Cl)cccc1Cl in this test
Result: inactive

Request: Field: outcome | Entry: Cc1c(CN(C)C)cc(C(C)C)cc1C(C)C
Result: inactive

---

Tested on: OVCAR-8 ovarian
Assay: NCI-60 one-dose screen, 48 h
Conditions: 10 µM unless noted
The panel holds about 83,000 compounds, 20% with a hit somewhere; the sample as a whole holds those more often. The source made the active and inactive calls. How the source made its calls: active means growth percent below 10; inactive means the rest.
Returns: one label drawn from T (active), F (inactive)

Take a look at these entries with their results.
COc1cc(OC)c(NC(=O)n2ncc3cc(Nc4ncnc5ccccc45)ccc32)cc1Cl: F
CC(C)OC(=O)c1ccc2n1CCCc1cnc(Nc3ccccc3)nc1-2: F
Cc1nn(-c2ccccc2)c(N)c1N=C1NC(=O)/C(=C/c2ccc(Cl)cc2)S1: F
COc1cc(/C(=C2/O[C@@H]([C@H]3COC(C)(C)O3)[C@H]3OC(C)(C)O[C@@H]23)c2ccc3c(c2)OCO3)cc(OC)c1OC: T
Oc1ccc(N=Nc2ccc(N=Nc3ccccc3)cc2)cc1: F
CCCCCCCCCCCCCCCCCCOP(=O)(O)O: F

Request: Call for entry FC(F)(F)c1cccc(-c2[nH]ncc2-c2nnnn2-c2ccccc2)c1 :
Result: F

---

Tested on: IGROV1 ovarian
Assay: NCI-60 one-dose screen, 48 h (100 = growth as untreated, 0 = no growth, -100 = all killed)
Conditions: 10 µM unless noted
The panel holds about 83,000 compounds, 20% with a hit somewhere; the sample as a whole holds those more often.
measurement_kind: growth (%)
Express the result in % but write the number alone.

Check out these entries, answers already filled in.
CCCCCCCCCCCCCCCCC(=O)O.CCCCCCCCCCCCCCCCCC(=O)O.CCCCCCCCCCCCCCCCCC(=O)O.CCCCCCCCCCCCCCCCCC(=O)O.CCCCCCCCCCCCCCCCCC(=O)O.CO[CH-]OC12COC1CC(O)C1(C)C(O)C(OC(C)O)C3=C(C)C(OC(=O)C(O)C([NH-])c4ccccc4)CC(O)(C(OC(=O)c4ccccc4)C21)C3(C)C.[Cu+].[Zn].[Zn].[Zn].[Zn].[Zn] (configuration not stated): 33.4
COc1ccc2c(c1)cn1c3ccc(O)cc3[nH]c(=O)c21: 13.2
COc1cc(NC(=O)CSc2nc3ccc(Cl)cc3c(=O)n2-c2ccc(F)cc2)cc(OC)c1OC: 86.6
Cc1c(O)c(N=Nc2ccc(C(=O)O)c(O)c2)c2ccccc2c1O: -25.9
O=C1C(Cl)=C(Nc2ccc(Nc3ccccc3)c(NC3=C(Cl)C(=O)c4ccccc4C3=O)c2)C(=O)c2ccccc21: 68.6

Request: Given the entry Nc1ccc(S(=O)(=O)c2ccc(NO)cc2)cc1 , report its measured growth.
Result: 1.89

Request: I would be grateful if you could share the reported growth for Cc1c(Cc2ccccc2)c(=O)oc2c(C)c(OCC(=O)n3nc(C#N)cc3N)ccc12 .
Result: 103

Request: Looking for the measured growth of CCCCCCCCCCCC(=O)OC(C)C(=O)Nc1ccccc1 (configuration not stated) , can you help?
Result: 103

Request: Would you kindly share the measured growth for N=C(N)N=Nc1ccc(NN=C(N)N)c2ccccc12 ?
Result: 107

Request: # input compound: N#Cc1c(N)nc(Nc2nc3ccccc3[nH]2)nc1-c1ccc(Cl)cc1 ; wanted: its growth
Result: 98.7

Request: Fill in the blank: the reported growth of C=C(C)C(C(=O)OCC)(C(=O)OCC)C(C)C is ____.
Result: 117

Request: growth lookup needed for COc1cc(NC(C)CCCN)c2nccc(C)c2c1OC (configuration not stated) , thanks.
Result: 92.8

Request: # input compound: Cc1nc2c(nnn2-c2ccccc2)c2nc(-c3ccccc3)oc(=O)c12 ; wanted: its growth
Result: 111

Request: Please look up its growth: CC1(c2ccc(Br)cc2)NC(=O)NC1=O (configuration not stated)
Result: 102

Request: Fill in: growth of O=C(Nc1ccccc1)Nc1ccc(Nc2ncnc3sc4c(c23)CCCC4)cc1 is ___
Result: 107

Request: Quick check: growth of c1ccc2[nH]c(-c3ccc(OCCCCCOc4ccc(-c5nc6ccccc6[nH]5)cc4)cc3)nc2c1 ?
Result: 38.3

Request: Looking for the measured growth of CCN(CC)CCCNc1c2ccc(Cl)cc2nc2ccc(OC)cc12 , can you help?
Result: 6.62

Request: What value of growth has been recorded for this entry: CCOC(=O)c1c(C)oc2ncnc(Nc3ccc(NC(=O)Nc4cccc(Cl)c4)cc3)c12
Result: 78.4

Request: // lookup growth for COc1cc(-c2nc3c(c(C)nc4c3nnn4-c3ccccc3)c(=O)o2)cc(OC)c1OC
Result: 112

---

Test system: EKVX NSCLC
Assay: NCI-60 one-dose screen, 48 h (100 = growth as untreated, 0 = no growth, -100 = all killed)
Conditions: 10 µM
The panel holds about 83,000 compounds, 20% with a hit somewhere; the sample as a whole holds those more often.
measurement_kind: growth (%)
Respond with the bare value in %.

Reference set (10 entries):
CC(=O)N1N=C(c2ccc(Cl)cc2)CC1c1cn(-c2ccccc2)nc1-c1ccc([N+](=O)[O-])cc1 (stereo unspecified): 98.8
N=C(N)c1ccc(-c2ccc(-c3cc(Cl)cc(Cl)c3)s2)cc1: -72
Cc1nnc(/N=C2\NC(=O)/C(=C/C=C/c3ccccc3)S2)s1: 67.1
O=S(=O)(O)c1ccc2c(c1)Sc1cc(S(=O)(=O)O)ccc1O2: 90.1
O=C(c1ccccc1)c1ccccc1-c1ccccc1: 58.8
CC(=O)/C(=C/c1ccc(-c2ccccc2)cc1)C(=O)c1ccccc1: 100
Nc1ncn([C@@H]2O[C@H](CO)[C@@H](O)C2(F)F)c(=O)n1: 86.1
Cc1ccc(CC(=O)O)c(C)c1: 109
COc1cc(/C=C/C(=O)c2ccc(F)cc2)ccc1OCCCCOc1cc2c(cc1OC)C(=O)N1CCCC1C=N2 (stereo unspecified): 8.29
CCOC(=O)NC1=NCC(C)(C)S1: 98.2

Request: Given the entry Cc1ccc(C(=O)Nc2ccc(CN3CCN(C)CC3)c(C(F)(F)F)c2)cc1C#Cc1cncc2ncccc12 , report its measured growth.
Result: -71.8

Request: Give the measured growth of COc1cc2c(c(OC)c1OC)C(=O)CC(c1cccc(C(=O)Nc3cccc(Br)c3)c1)O2 (stereo unspecified) .
Result: 85.1

Request: Which growth reading was recorded for the molecule C[C@]12CC[C@H]3[C@@H](CC[C@H]4C[C@@H](O)CC[C@@]43C)[C@@H]1CC(=O)C2 ?
Result: 96.9

Request: Using the record for Cc1ccc(C(=O)Nc2ccc(CN3CCN(C)CC3)c(C(F)(F)F)c2)cc1C#Cc1cnc(N)c2ccc(F)cc12 , report its growth.
Result: -92.2
